assay: self-splicing fitness, log relative to wild type (ln ratio); higher = more splicing; Tetrahymena group I intron in knt gene, E. coli kanamycin selection, DiMSum; sequences stand for … in CUCUCU…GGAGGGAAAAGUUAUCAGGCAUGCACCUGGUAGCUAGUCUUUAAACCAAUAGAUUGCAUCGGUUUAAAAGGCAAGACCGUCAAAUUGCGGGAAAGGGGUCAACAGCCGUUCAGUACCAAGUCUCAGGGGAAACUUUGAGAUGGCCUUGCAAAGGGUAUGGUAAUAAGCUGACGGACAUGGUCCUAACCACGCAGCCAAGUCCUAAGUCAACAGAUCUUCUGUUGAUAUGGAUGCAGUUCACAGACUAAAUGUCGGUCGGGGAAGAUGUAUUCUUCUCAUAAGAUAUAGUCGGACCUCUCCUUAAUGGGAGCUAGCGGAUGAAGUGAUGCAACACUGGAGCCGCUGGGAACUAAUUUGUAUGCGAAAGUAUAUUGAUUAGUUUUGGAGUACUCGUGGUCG; settings: 37 °C;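 further: selection with 25 µg/mL kanamycin versus none on LB agar overnight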
experimentalReadout: self-splicing fitness (ln)
Answer with the value's number alone.

Prompt: Fill in self-splicing fitness (ln) for record GUUAAGCAAUAUUACGGGCA
Completion: -1.14

---

experiment: self-splicing fitness, log relative to wild type (ln ratio); higher = more splicing; Tetrahymena group I intron in knt gene, E. coli kanamycin selection, DiMSum; sequences stand for … in CUCUCU…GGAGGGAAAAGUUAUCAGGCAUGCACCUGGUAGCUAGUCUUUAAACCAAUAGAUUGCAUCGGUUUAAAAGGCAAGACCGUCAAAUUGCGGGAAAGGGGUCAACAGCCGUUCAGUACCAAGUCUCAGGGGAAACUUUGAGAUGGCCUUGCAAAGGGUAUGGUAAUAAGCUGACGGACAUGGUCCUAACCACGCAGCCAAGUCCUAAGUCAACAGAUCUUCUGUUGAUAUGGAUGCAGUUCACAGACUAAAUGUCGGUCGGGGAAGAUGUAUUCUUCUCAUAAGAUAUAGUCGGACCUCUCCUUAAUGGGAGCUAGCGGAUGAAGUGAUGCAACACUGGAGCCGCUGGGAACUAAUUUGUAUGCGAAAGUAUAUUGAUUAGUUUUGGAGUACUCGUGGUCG; settings: 37 °C
experimentalReadout: self-splicing fitness (ln)
Answer with the value's number alone.

Prompt: Fill in self-splicing fitness (ln) for record GUGCAGCAAUAUUACGACAA
Completion: -0.153

Prompt: Fill in self-splicing fitness (ln) for record CCGCAGCAAUAUUACGUCGU
Completion: -2.79

Prompt: Fill in self-splicing fitness (ln) for record GGUGAGCAAUAUUACGAGGA
Completion: -2.02

Prompt: Fill in self-splicing fitness (ln) for record UAAAAGCAAUAUUACGAAGA
Completion: -1.12

Prompt: Fill in self-splicing fitness (ln) for record GAGCAGCAAUAUUACGCACC
Completion: -1.82

Prompt: Fill in self-splicing fitness (ln) for record AACUAGCAAUAUUACGGCCU
Completion: -0.0804

Prompt: Fill in self-splicing fitness (ln) for record GGGAAGCAAUAUUACGUAAA
Completion: -1.56

Prompt: Fill in self-splicing fitness (ln) for record GAACAGCAAUAUUACGCCUG
Completion: 0.185

More entries:
Prompt: Fill in self-splicing fitness (ln) for record UGAUAGCAAUAUUACGCCUU
Completion: -1.32

Prompt: Fill in self-splicing fitness (ln) for record ACUAAGCAAUAUUACGUUCA
Completion: -0.98

Prompt: Fill in self-splicing fitness (ln) for record CAACAGCAAUAUUACGGUGU
Completion: -2.55

Prompt: Fill in self-splicing fitness (ln) for record UGGCAGCAAUAUUACGGCUC
Completion: -0.683

Prompt: Fill in self-splicing fitness (ln) for record AGAAAGCAAUAUUACGUUGC
Completion: -3.36

Prompt: Fill in self-splicing fitness (ln) for record AUGAAGCAAUAUUACGCUCG
Completion: 0.31

Prompt: Fill in self-splicing fitness (ln) for record CAUUAGCAAUAUUACGUCUA
Completion: -2.2

Prompt: Fill in self-splicing fitness (ln) for record UUUGAGCAAUAUUACGGCAC
Completion: -2.56

---

assay: self-splicing fitness, log relative to wild type (ln ratio); higher = more splicing; Tetrahymena group I intron in knt gene, E. coli kanamycin selection, DiMSum; sequences stand for … in CUCUCU…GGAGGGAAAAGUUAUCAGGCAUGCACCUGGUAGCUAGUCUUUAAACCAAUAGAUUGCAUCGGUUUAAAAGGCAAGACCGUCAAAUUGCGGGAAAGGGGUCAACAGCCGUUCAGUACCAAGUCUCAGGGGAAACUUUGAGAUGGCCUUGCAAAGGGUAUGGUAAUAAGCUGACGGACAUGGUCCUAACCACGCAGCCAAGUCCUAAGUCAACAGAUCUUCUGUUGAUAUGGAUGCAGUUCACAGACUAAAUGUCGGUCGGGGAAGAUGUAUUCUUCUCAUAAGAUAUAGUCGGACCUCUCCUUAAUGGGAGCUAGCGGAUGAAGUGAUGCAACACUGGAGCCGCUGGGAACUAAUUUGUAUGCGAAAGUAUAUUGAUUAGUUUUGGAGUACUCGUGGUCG; conditions: 30 °C
experimentalReadout: self-splicing fitness (ln)
Answer with the value's number alone.

Consider the reported self-splicing fitness (ln) for these sequences:
Prompt: Fill in self-splicing fitness (ln) for record GACGAGCAAUAUUACGGGUA
Completion: -3.66

Prompt: Fill in self-splicing fitness (ln) for record CAUAAGCAAUAUUACGACCG
Completion: 0.135

Prompt: Fill in self-splicing fitness (ln) for record GGGUAGCAAUAUUACGGGUA
Completion: -1.55

Prompt: Fill in self-splicing fitness (ln) for record UCGCAGCAAUAUUACGACCU
Completion: -3.1

Prompt: Fill in self-splicing fitness (ln) for record ACAUAGCAAUAUUACGGCUA
Completion: -0.773

Prompt: Fill in self-splicing fitness (ln) for record CCGCAGCAAUAUUACGAACA
Completion: -2.19

More entries:
Prompt: Fill in self-splicing fitness (ln) for record AUUCAGCAAUAUUACGCCCG
Completion: -1.85

---

assay: self-splicing fitness, log relative to wild type (ln ratio); higher = more splicing; Tetrahymena group I intron in knt gene, E. coli kanamycin selection, DiMSum; sequences stand for … in CUCUCU…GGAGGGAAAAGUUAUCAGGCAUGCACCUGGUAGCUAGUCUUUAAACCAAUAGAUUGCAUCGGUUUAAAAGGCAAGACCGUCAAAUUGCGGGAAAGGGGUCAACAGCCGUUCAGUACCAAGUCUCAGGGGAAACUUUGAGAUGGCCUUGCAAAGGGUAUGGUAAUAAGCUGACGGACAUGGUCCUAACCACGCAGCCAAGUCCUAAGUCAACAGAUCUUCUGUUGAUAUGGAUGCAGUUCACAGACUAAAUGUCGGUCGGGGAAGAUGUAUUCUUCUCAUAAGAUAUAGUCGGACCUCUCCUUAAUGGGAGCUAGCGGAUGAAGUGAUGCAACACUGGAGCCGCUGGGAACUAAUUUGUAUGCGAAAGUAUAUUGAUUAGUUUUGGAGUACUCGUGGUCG; conditions: 37 °C
experimentalReadout: self-splicing fitness (ln)
Answer with the value's number alone.

Consider the reported self-splicing fitness (ln) for these sequences:
Prompt: Fill in self-splicing fitness (ln) for record AAUCAGCAAUAUUACGCUCG
Completion: -0.114

Prompt: Fill in self-splicing fitness (ln) for record UCUGAGCAAUAUUACGAGGG
Completion: -2.5

Prompt: Fill in self-splicing fitness (ln) for record CUGAAGCAAUAUUACGUGAG
Completion: 0.305

Prompt: Fill in self-splicing fitness (ln) for record AGCCAGCAAUAUUACGGCGG
Completion: -1.1

Prompt: Fill in self-splicing fitness (ln) for record ACAAAGCAAUAUUACGGGUC
Completion: -1.76

Prompt: Fill in self-splicing fitness (ln) for record AAGCAGCAAUAUUACGCCCU
Completion: 0.0798

Prompt: Fill in self-splicing fitness (ln) for record CGACAGCAAUAUUACGGCCU
Completion: -0.3

Prompt: Fill in self-splicing fitness (ln) for record GUCAAGCAAUAUUACGGCUU
Completion: -2.74

More entries:
Prompt: Fill in self-splicing fitness (ln) for record UGACAGCAAUAUUACGCUAA
Completion: -0.325

Prompt: Fill in self-splicing fitness (ln) for record AAGGAGCAAUAUUACGACAA
Completion: -2.16

Prompt: Fill in self-splicing fitness (ln) for record CGUCAGCAAUAUUACGUAGU
Completion: -1.24

Prompt: Fill in self-splicing fitness (ln) for record CUUGAGCAAUAUUACGAGUC
Completion: -1.33

Prompt: Fill in self-splicing fitness (ln) for record GUGUAGCAAUAUUACGCGUU
Completion: -0.621

Prompt: Fill in self-splicing fitness (ln) for record AGCCAGCAAUAUUACGAUGG
Completion: -2.28

Prompt: Fill in self-splicing fitness (ln) for record UUCUAGCAAUAUUACGUCAC
Completion: -2.28

Prompt: Fill in self-splicing fitness (ln) for record UUCAAGCAAUAUUACGCAGG
Completion: -1.78

Prompt: Fill in self-splicing fitness (ln) for record UGAGAGCAAUAUUACGGCUG
Completion: -0.389

Prompt: Fill in self-splicing fitness (ln) for record GGACAGCAAUAUUACGUGUU
Completion: -2.44
